Test: Plasma PK of emodepside in the main trial, LC-MS/MS
Format: in vivo, zebu (Ngaoundéré Gudali) cattle (B. t. indicus)
Details: Ngaoundéré Gudali, bovine, plasma, iv, 0.75 mg/kg, EMO7H, 0.75 mg/kg IV daily for 7 days; animals in order B0434, B0695, B0734; read-out: Time of observed Cmax in plasma (converted)

molecule	unitOfMeasure	Tmax
CC(C)C[C@H]1C(=O)O[C@H](Cc2ccc(N3CCOCC3)cc2)C(=O)N(C)[C@@H](CC(C)C)C(=O)O[C@H](C)C(=O)N(C)[C@@H](CC(C)C)C(=O)O[C@H](Cc2ccc(N3CCOCC3)cc2)C(=O)N(C)[C@@H](CC(C)C)C(=O)O[C@H](C)C(=O)N1C [emodepside]	min	5
